system: SF-268 CNS; assay: NCI tumour cell line growth inhibition, 48 h; in the data active = GI50 below about 0.43 µM; inactive = the rest
I would appreciate it if you answered using one of these outcomes: yes (1) (active), no (0) (inactive)

Example cases with answers are listed next.
INSERT INTO results (compound, class_assignment) VALUES
  ('NC(=O)C1c2ccccc2C=Cc2ccccc21', 'no (0)'),
  ('Nc1ccccc1SC(CC(=O)c1ccccc1)c1ccc([N+](=O)[O-])cc1 (stereo unspecified)', 'no (0)'),
  ('Cc1cccc(-c2nn3c(c2-c2ccnc4ccc(C(N)=O)cc24)CCC3)n1', 'no (0)'),
  ('N.N.N.N.O=NN1CCCCCC1(P(=O)([O-])[O-])P(=O)([O-])[O-].[Pt+4].[Pt+4]', 'no (0)'),
  ('CCN(CC)CC.CCOc1ccc(NC(=O)N=C=[N-])cc1.[CH-]1CCCCC1.[CH-]1CCCCC1.[CH-]1CCCCC1.[Cl-].[Sn+4]', 'yes (1)');

Now turn to the next compound.
What did the test return for `NC(=NCCCC1(c2ccccc2)CCCC1)Nc1ccc(Cl)cc1` ? no (0)
